Each recorded value in this set is attributed to the supplement of paper PMC13392028.

# RBNS R-value annotations
# Tested on: PvIESI-1 RRM domain (Plasmodium vivax PVP01_0939900 aa 896-1203, GST fusion)
# Assay Method Text: RBNS R-value (6-mer enrichment in protein-bound RNA vs input library) (ratio); higher = stronger binding preference
# Test Conditions: protein concentration: 250 nM

# count of solved cases: 5
> print(dat)
   residue.string                        measurement.target  measurement.type  measured.value
1          UGAUAU  PvIESI-1 RRM domain (Plasmodium vivax PVP01_0939900 aa 896-1203, GST fusion)      RBNS R-value            2.45
2          CGUGAU  PvIESI-1 RRM domain (Plasmodium vivax PVP01_0939900 aa 896-1203, GST fusion)      RBNS R-value            2.33
3          GAUGAA  PvIESI-1 RRM domain (Plasmodium vivax PVP01_0939900 aa 896-1203, GST fusion)      RBNS R-value            2.73
4          UGAUGG  PvIESI-1 RRM domain (Plasmodium vivax PVP01_0939900 aa 896-1203, GST fusion)      RBNS R-value            3.91
5          UGAUAG  PvIESI-1 RRM domain (Plasmodium vivax PVP01_0939900 aa 896-1203, GST fusion)      RBNS R-value               3

Documented RBNS R-value of UGAUCU : 2

----------
# Tested on: PvIESI-1 RRM domain (Plasmodium vivax PVP01_0939900 aa 896-1203, GST fusion)
# Assay Method Text: RBNS R-value (6-mer enrichment in protein-bound RNA vs input library) (ratio); higher = stronger binding preference
# Test Conditions: protein concentration: 250 nM
Measurement Type: RBNS R-value
// no unit string in output, number only

# count of solved cases: 6
> print(dat)
   residue.string                        measurement.target  measured.value
1          GAUGAG  PvIESI-1 RRM domain (Plasmodium vivax PVP01_0939900 aa 896-1203, GST fusion)            2.33
2          AUGAUG  PvIESI-1 RRM domain (Plasmodium vivax PVP01_0939900 aa 896-1203, GST fusion)            5.14
3          GUGAUG  PvIESI-1 RRM domain (Plasmodium vivax PVP01_0939900 aa 896-1203, GST fusion)            3.26
4          GAUGUG  PvIESI-1 RRM domain (Plasmodium vivax PVP01_0939900 aa 896-1203, GST fusion)             2.3
5          GUGAUU  PvIESI-1 RRM domain (Plasmodium vivax PVP01_0939900 aa 896-1203, GST fusion)            2.96
6          GCCCGA  PvIESI-1 RRM domain (Plasmodium vivax PVP01_0939900 aa 896-1203, GST fusion)            1.45

Documented RBNS R-value of GAUGGC : 2.5

----------
# Test system: PvIESI-1 RRM domain (Plasmodium vivax PVP01_0939900 aa 896-1203, GST fusion)
# Assay Method Text: RBNS R-value (6-mer enrichment in protein-bound RNA vs input library) (ratio); higher = stronger binding preference
# Test Conditions: protein concentration: 250 nM
Measurement Type: RBNS R-value

# count of solved cases: 10
> print(dat)
    residue.string                        measurement.target  measured.value
 1          CACCCG  PvIESI-1 RRM domain (Plasmodium vivax PVP01_0939900 aa 896-1203, GST fusion)            1.41
 2          CAUGAU  PvIESI-1 RRM domain (Plasmodium vivax PVP01_0939900 aa 896-1203, GST fusion)            3.57
 3          CUGAUA  PvIESI-1 RRM domain (Plasmodium vivax PVP01_0939900 aa 896-1203, GST fusion)            2.42
 4          GAUGAC  PvIESI-1 RRM domain (Plasmodium vivax PVP01_0939900 aa 896-1203, GST fusion)            2.47
 5          UGAUUC  PvIESI-1 RRM domain (Plasmodium vivax PVP01_0939900 aa 896-1203, GST fusion)            3.85
 6          UGAUAA  PvIESI-1 RRM domain (Plasmodium vivax PVP01_0939900 aa 896-1203, GST fusion)            2.82
 7          GAUGGG  PvIESI-1 RRM domain (Plasmodium vivax PVP01_0939900 aa 896-1203, GST fusion)            2.02
 8          GAUUUC  PvIESI-1 RRM domain (Plasmodium vivax PVP01_0939900 aa 896-1203, GST fusion)            2.32
 9          CUUGAU  PvIESI-1 RRM domain (Plasmodium vivax PVP01_0939900 aa 896-1203, GST fusion)            3.23
10          AUGAUU  PvIESI-1 RRM domain (Plasmodium vivax PVP01_0939900 aa 896-1203, GST fusion)            4.49

Documented RBNS R-value of AAUGAU : 3.66

Documented RBNS R-value of UUGAUG : 4.85

Documented RBNS R-value of UUUGAU : 3.94

----------
# Test system: PvIESI-1 RRM domain (Plasmodium vivax PVP01_0939900 aa 896-1203, GST fusion)
# Assay Method Text: RBNS R-value (6-mer enrichment in protein-bound RNA vs input library) (ratio); higher = stronger binding preference; the methods of the paper give 50 / 100 / 500 nM protein instead
# Test Conditions: protein concentration: 250 nM
Measurement Type: RBNS R-value

# count of solved cases: 5
> print(dat)
   residue.string                        measurement.target  measured.value
1          GAUUGC  PvIESI-1 RRM domain (Plasmodium vivax PVP01_0939900 aa 896-1203, GST fusion)            2.21
2          GUGAUA  PvIESI-1 RRM domain (Plasmodium vivax PVP01_0939900 aa 896-1203, GST fusion)            2.04
3          CCUUGA  PvIESI-1 RRM domain (Plasmodium vivax PVP01_0939900 aa 896-1203, GST fusion)             1.7
4          ACUGAU  PvIESI-1 RRM domain (Plasmodium vivax PVP01_0939900 aa 896-1203, GST fusion)            2.99
5          UAUGAU  PvIESI-1 RRM domain (Plasmodium vivax PVP01_0939900 aa 896-1203, GST fusion)            3.09

Documented RBNS R-value of GAUGCC : 1.89

Documented RBNS R-value of AUUGAU : 3.54

Documented RBNS R-value of CCCGAG : 1.41

Documented RBNS R-value of UGUGAU : 2.53

Documented RBNS R-value of CUGAUG : 4.09

Documented RBNS R-value of CGAUGA : 2.37

Documented RBNS R-value of GCUGAU : 2.62

Documented RBNS R-value of UGAUGU : 4.24

Documented RBNS R-value of GAUUGA : 2.27
